measured_on: SARS-CoV-2-S1 (RBD)-His protein (Trenzyme) (SARS-CoV-2, UniProt P0DTC2 319-541)
test_details: direct ELISA on coated RBD-His

binder	EC50 / nM
NI-607.532_F3 (antibody, V domains shown) VH: EVQLVQSGAEVKKPGESLKISCKGFGYIFSNDWIGWVRQKPGKGLEWMGIIYPGDSDTRYSPSFRGQVTISADKSVSTAYLQWDSLKASDTAVYYCTRPRYTTMIVGSNPFDVWGQGTTVTVSS VL: QSVLTQPPSVSGAPGQRVTISCTGSSSNIGGGYDVHWYQKLPGTAPKLLIFDNDNRPSGVPDRFSGSKSDTSASLTITGLQAEDEADYFCQSYDSSLSGSGVVFGGGTKLTVL	0.019
NI-607.529_G4 (antibody, V domains shown) VH: QVQLQQWGAGLLKPSETLSLTCAVYGGSFSGYYWSWIRQPPGKGLEWIGEINHSGSTNYNPSLKSRVTISVDTSKNQFSLKLSSVTAADTAVYYCARASLYYSDSSGYSHPYYFDYWGQGTLVTVSS VL: QPVLTQPPSVSGAPGQRVTISCTGSSSNIGAGYDVHWYQQLPGTAPKLLIYGNSNRPSGVPDRFSGSKSGMSASLAITGLQAEDEADYYCQSYDSSLSGWVFGGGTKLTVL	0.026
NI-607.531_E7 (antibody, V domains shown, also called F31 E7) VH: EVQLVESGGGVVQPGRSLRLSCAASGFTFNFYSMHWVRQVPGKGLEWVAVISFDGSTKHYAESLRGRFAVSRDNSKSTLYLQMNSLRPEDTAVYYCASPPLSPIPAAGTPLDYWGQGTLVTVSS VL: EIVMTQSPDSLAVSLGERATINCKSSQSIFYRSDDKDFLAWYQQKPGQPPKLLISWASTRESGVPDRFSGSGSGTDFTLTISSLQAEDVAVYYCQQFYYTPFTFGPGTKLEIK	0.027
NI-607.429_B9 (antibody, V domains shown) VH: EVQLVESGGGLVQPGGSLRLSCAASGFTFSSYWMSWVRQAPGKGLEWVANIKQDGSEKYYVDSVKGRFTISRDNAKNSLYLQMNSLRAEDTAVYYCASLFWRRGSFDPWGQGTLVTVSS VL: QSVLTQPHSVSESPGKTVTISCTRSTGSIASNYVQWYQQRPGSAPTTVIYEDNQRPSGVPDRFSGSIDSSSNSASLTISGLKTEDEADYYCQSYDTSSYWVFGGGTKLTVL	0.014
NI-607.820_B7 (antibody, V domains shown) VH: EVQLVESGGGLVQPGRSLRLSCAASGFTFDDFDMHWVRQAPGKGLEWVSGVTWNSGIIGYADSVKGRFTISRDNAKNSLYLQMNSLRAEDTALYYCAKEFYPRYGSGIRSHYFGMDVWGQGTTVTVSS VL: QSVLTQSPSASGTPGQRVTISCSGSSSNVGSNAVNWYQQLPGTAPKLLIYSNNRRPSGVPNRFSGSKSGTSASLAISGLQSDDEADYYCAAWDDSLDGPTFGGGTKLTVL	0.082
NI-607.761_B7 (antibody, V domains shown) VH: EVQLVESGGGVVQPGRSLRLSCAASGFTFTRYGMHWVRQAPGKGLEWVAVIWYDGNNKNYEDSVRGRFTISRDNSKNTLFLQMNSLRAEDTAVYYCARGRRGGYSYGLFDYWGQGILVTVSS VL: AIRMTQSPSSLSASVGDRVTITCQASQDISNYLNWYQQKPGKAPKLLIYDASNLETGVPSRFSGSGSGTDFTFTISSLQPEDVATYSCQQYDNLPLTFGGGTKVEIK	0.001
